# System under test: gH/gL of HCMV strain AD169 (on virus AD169 and on reporter virus AD169R) (human cytomegalovirus (strain AD169), UniProt P12824 24-743; P16832 31-278)
# Procedure details: cell-based or functional assay
Quantity measured: IC50(MRC5/NHDF) AD169, virus neutralization (µg/mL)
Entry rule: numbers only, all in µg/mL.

**Query** Consider the binder 15G11 (antibody, V domains shown, also called 15G11 (ms); anti-gH mAb 15G11) VH: QVQLQESGPGLVKPSQTLSLTCTVSGGSISSGYYYWNWIRQHPGKGLECIGYIYYSGTTYYNPSLKSRLFISVDTSKNQFSLKLRSVTAADTAVYYCARGGLGAFDIWGQGTMVTVSS VL: EIVLTQSPGTLSLSPGERATLSCRASQSVSSSYLAWYQQKPGQAPRLLIYGASSRAPGIPDRFSGTGSGTDFTLTISRLEPEDFAVYYCQQYGISPLTFGGGTKVEIK and give its measured IC50(MRC5/NHDF) AD169, virus neutralization.
**Result** 0.31

**Query** Another binder: 13G1 (antibody, V domains shown, also called 13G1 (ms); anti-gH mAb 13G1) VH: QVTLKESGPVLVKPTETLTLTCTVSGFSLYNARMGVTWIRQPPGKALEWLAHIFSNDERSYTSSLKNRLTISKDTSKSQVVLTMTNMDPVDTATYYCARIDYSNYIGNWFDPWGQGTLVTVSS VL: DIQMTQSPSSLSASVGDRVTITCRASQSISNYLNWYQQKPGKAPKLLIYAASSLQGGVPSRFSGSGSGTDFTLTISSLQPEDFTTYYCQQSYSTPFTFGGGTKVEIK
**Result** 15.9

**Query** Another binder: 9A12 (antibody, V domains shown, also called 9A12 (ms); anti-gH mAb 9A12) VH: EVQLVESGGVLVQPGGSLRLSCAASGFTFSSHEMNWVRQAPGKGLEWISYISSTGSTIYDADSVKGRFTISRDNAKNSLYLQMNSLRAEDTAVYYCARSSGWYRNYSYGMDVWGQGTTVTVSS VL: DIQMAQSPSSLSASVGDRVTITCRASQGIYNYLAWFQQKPGKAPKSLIYAASSLQTGVPSKFSGSGSGTDFTLTISNLQPEDFATYYCQQYNSFPRTFGQGTKVEIK
**Result** 0.77

**Query** Another binder: 14E1 (antibody, V domains shown, also called 14E1 (ms)) VH: QVQLVQSGAEVKKPGASVKVSCKASGYTFTSYSISWVRQAPGQGLEWMGWINTYNGNTNYAQRVQARVTMTTDTSTSTAYMELRSLRSDDTAVYYCARDHGFFFDYWGQGNLVTVSS VL: DIQLTQSPSFLSASVGDRVTITCWASQGISSYLAWYQQKPGKAPKLLIYAASTLQSGVPSRFSGSGSGTEFTLTISSLQPEDFATYYCQQLNSYPYTFGQGTQLEIK
**Result** 0.91
